assay: Plasma pharmacokinetics after single oral dose; format: in vivo; conditions: KM, mouse; mice plasma, single oral 500 mg·kg^−1, female mice
Experimental endpoint: MRT (h)
Field: numeric (h). Do not append units.

Find the recorded MRT belonging to CC(C)=C/C=C/[C@H](C)[C@H]1CC[C@]2(C)C[C@@H]3C(C)=CC(=O)[C@H]3/C(C=O)=C\C[C@@H]12 [MHO7, 6-epi-ophiobolin G] and report it.
8.76

* * *

assay: Log P by shaking flask method (n-octanol/water); format: physicochemical; conditions: 25 °C, 30 h, read-out: Log P Value
Experimental endpoint: logP at 30 h

Reported logP at 30 h for CC(C)=C/C=C/[C@H](C)[C@H]1CC[C@]2(C)C[C@@H]3C(C)=CC(=O)[C@H]3/C(C=O)=C\C[C@@H]12 [MHO7, 6-epi-ophiobolin G] : what is it?
1.27
